Target: human C1 r (Homo sapiens)
Construct: purchased Enzyme Research Labs (South Bend, Ind.)
Test: Assay of C1r Enzyme Activity (Assay 1), thioester substrate z-Gly-Arg-S-Bzl with DTNB
Type: biochemical
Details: Table 1 and text, pH 7.4-7.5, read-out: Inhibition of Clr Assay 1 (IC50)
Method: Assay of C1 r Enzyme Activity Purified human C1 r was obtained commercially from Enzyme Research Labs (South Bend, Ind.). The enzyme is stored frozen at -70° C. at a stock concentration of about 1 mg/mL of protein until the enzyme is needed. […] The assay produces a yellow color that is read in the kinetic mode using a Molecular Devices Thermomax microplate reader set to a wavelength of 405 nm. […]
Quantity measured: IC50 (µM)

COc1ccc2nc(N(C)C(=O)c3ccccc3I)oc(=O)c2c1 | 48
CN(C(=O)c1cccc2ccccc12)c1nc2ccccc2c(=O)o1 | 23.4
CN(C(=O)c1ccccc1)c1nc2ccccc2c(=O)o1 | 10.7
CN(C(=O)c1ccccc1Br)c1nc2ccccc2c(=O)o1 | 4
O=c1oc(Nc2ccccc2Br)nc2ccccc12 | 5.1
CN(C(=O)c1ccccc1I)c1nc2ccccc2c(=O)o1 | 3.1
O=c1oc(Nc2ccccc2I)nc2ccc(Cl)cc12 | 4

* * *

Target: human C1 r (Homo sapiens, UniProt P00736)
Construct: purchased Enzyme Research Labs (South Bend, Ind.)
Sequence (P00736 464-705 limits assumed): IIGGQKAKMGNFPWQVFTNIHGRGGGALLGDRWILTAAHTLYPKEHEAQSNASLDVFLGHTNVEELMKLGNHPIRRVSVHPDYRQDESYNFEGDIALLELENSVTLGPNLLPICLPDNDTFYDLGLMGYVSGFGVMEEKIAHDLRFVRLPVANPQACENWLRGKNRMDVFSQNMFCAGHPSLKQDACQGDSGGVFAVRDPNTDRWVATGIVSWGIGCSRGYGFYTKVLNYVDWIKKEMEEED
Sequence (P00736 18-463 partner limits assumed): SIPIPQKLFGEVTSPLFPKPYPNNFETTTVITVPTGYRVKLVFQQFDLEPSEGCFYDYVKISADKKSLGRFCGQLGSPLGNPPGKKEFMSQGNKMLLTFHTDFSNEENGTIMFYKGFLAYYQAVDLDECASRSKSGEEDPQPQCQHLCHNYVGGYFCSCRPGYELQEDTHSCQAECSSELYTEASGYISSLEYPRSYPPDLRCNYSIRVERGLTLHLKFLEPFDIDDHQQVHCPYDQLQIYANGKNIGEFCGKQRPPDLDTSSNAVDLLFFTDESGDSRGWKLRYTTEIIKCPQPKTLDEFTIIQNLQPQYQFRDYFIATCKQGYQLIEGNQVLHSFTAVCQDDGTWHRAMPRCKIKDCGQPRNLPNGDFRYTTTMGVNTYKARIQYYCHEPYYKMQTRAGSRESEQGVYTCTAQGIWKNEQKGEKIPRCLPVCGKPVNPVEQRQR
Experiment: Assay of C1r Enzyme Activity (Assay 1), thioester substrate z-Gly-Arg-S-Bzl with DTNB
Assay type: biochemical
Conditions: Table 2, pH 7.4-7.5, read-out: Inhibition of Clr Assay 1 IC50
Experimental: Assay of C1 r Enzyme Activity Purified human C1 r was obtained commercially from Enzyme Research Labs (South Bend, Ind.). The enzyme is stored frozen at -70° C. at a stock concentration of about 1 mg/mL of protein until the enzyme is needed. […] The assay produces a yellow color that is read in the kinetic mode using a Molecular Devices Thermomax microplate reader set to a wavelength of 405 nm. […]
Labelling field: enter Fulfilled if recorded IC50 is less than 6000 nM. Enter Not fulfilled if it equals or exceeds that cut-off.

CN(C(=O)C1CCCCC1)c1nc2ccccc2c(=O)o1 [Example 65] | Fulfilled
CCCCCCC(=O)N(CC)c1nc2ccccc2c(=O)o1 [Example 66] | Not fulfilled
CC(=O)N(C)c1nc2ccccc2c(=O)o1 [Example 69] | Not fulfilled
CN(C(=O)CCc1ccccc1)c1nc2ccccc2c(=O)o1 [Example 68] | Fulfilled
CCCCCCCCCCC(=O)N(C)c1nc2ccccc2c(=O)o1 [Example 67] | Not fulfilled
CCCCCCC(=O)N(C)c1nc2ccccc2c(=O)o1 [Example 64] | Fulfilled

* * *

Biological target: human C1 r (Homo sapiens, UniProt P00736)
Construct: purchased Enzyme Research Labs (South Bend, Ind.)
Experiment: Assay of C1r Enzyme Activity (Assay 1), thioester substrate z-Gly-Arg-S-Bzl with DTNB
Type: biochemical
Details: Table 1 and text, pH 7.4-7.5, read-out: Inhibition of Clr Assay 1 (IC50)
Method: Assay of C1 r Enzyme Activity Purified human C1 r was obtained commercially from Enzyme Research Labs (South Bend, Ind.). The enzyme is stored frozen at -70° C. at a stock concentration of about 1 mg/mL of protein until the enzyme is needed. […] The assay produces a yellow color that is read in the kinetic mode using a Molecular Devices Thermomax microplate reader set to a wavelength of 405 nm. […]
log10 of IC50 overview
Quantity measured: log10 of IC50 (log10 of the value in µM)

Cc1ccccc1Nc1nc2ccccc2c(=O)o1 [Example 51, 2-o-Tolylamino-benzo[d][1,3]oxazin-4-one] | 1.49
Cc1ccc2c(=O)oc(Nc3ccccc3I)nc2c1 [Example 28] | -0.10
COc1ccc2nc(Nc3ccccc3I)oc(=O)c2c1 [Example 24] | 1.74
CN(C(=O)c1ccccc1I)c1nc2cccc(Cl)c2c(=O)o1 [Example 54] | 1.56
O=c1oc(Nc2c(Cl)cccc2Cl)nc2cc(Cl)ccc12 [Example 50] | -0.40
CN(C(=O)c1ccccc1F)c1nc2ccccc2c(=O)o1 [Example 33] | 1.78
CSc1ccccc1C(=O)N(C)c1nc2ccccc2c(=O)o1 [Example 15] | -0.10
COc1ccc(C(=O)N(C)c2nc3ccccc3c(=O)o2)cc1 [Example 59] | 1.28
CN(C(=O)c1ccsc1)c1nc2ccccc2c(=O)o1 [Example 32] | 0.78
O=c1oc(Nc2ccccc2I)nc2cc(C(F)(F)F)ccc12 [Example 31] | -0.40
Cc1ccc2c(=O)oc(Nc3ccccc3Cl)nc2c1 [Example 45] | 0.15

Every entry's value here was drawn from patent US5652237A.
